assay summary: Rate of degradation/transformation of compounds in solution (half-life for the transformation to the active moiety) at pH 2 and 7
Format: physicochemical
test context: water solution, at pH = 2
Friendly reminder: half-life below 4 min is Fulfilled, at or above is Not fulfilled.

                                   compound     class_name
0  CCc1cnc(C[S+]([O-])c2nc3cc(OC)ccc3[nH]2)cc1Oc1ccccc1 (stereo not drawn)      Fulfilled
1  COC(=O)c1cc2nc([S+]([O-])Cc3ncccc3C)[nH]c2cc1C (stereo not drawn)  Not fulfilled
2  Cc1cnc(C[S+]([O-])c2nc3cc(C)ccc3[nH]2)c(C)c1 (stereo not drawn)  Not fulfilled
3  COc1ccnc(C[S+]([O-])c2nc3cc(C(F)(F)F)ccc3[nH]2)c1C (stereo not drawn)      Fulfilled
4  COc1ccnc(C[S+]([O-])c2nc3cc(C(F)(F)F)ccc3[nH]2)c1 (stereo not drawn)      Fulfilled
5  CCc1ccc2[nH]c([S+]([O-])Cc3nc4ccccc4n3C)nc2c1 (stereo not drawn)  Not fulfilled

---

assay summary: Rate of degradation/transformation of compounds in solution (half-life for the transformation to the active moiety) at pH 2 and 7
Type: physicochemical
test context: water solution, at pH = 7
Each record here notes measured log10 of half-life.
observed property: log10 of half-life (log10 of the value in h)

>>> print(df.to_string())
                                   compound   observed_property  test_result
0  COc1ccnc(C[S+]([O-])c2nc3cc(C(F)(F)F)ccc3[nH]2)c1 (centres unmarked)  log10 of half-life         0.31
1  COc1ccnc(C[S+]([O-])c2nc3cc(C(F)(F)F)ccc3[nH]2)c1C (centres unmarked)  log10 of half-life        -0.83
2  COC(=O)c1cc2nc([S+]([O-])Cc3ncccc3C)[nH]c2cc1C (centres unmarked)  log10 of half-life         0.40
3  Cc1cnc(C[S+]([O-])c2nc3cc(C)ccc3[nH]2)c(C)c1 (centres unmarked)  log10 of half-life         1.45
4  CCc1cnc(C[S+]([O-])c2nc3cc(OC)ccc3[nH]2)cc1Oc1ccccc1 (centres unmarked)  log10 of half-life         1.43
